Taken from patent US20220363770A1.

Target: T1, human CGRP receptor (human CRLR / human RAMP1 heterodimer) (human, UniProt Q16602 23-461; O60894 27-148)
T1 construct: Full-length receptor: endogenous on SK-N-MC (HTB-10) cells in the cAMP assay; also called hCGRP receptor on SK-N-MC (HTB-10) cells; Human CGRP Receptor/AMID detergent-solubilized cell lysate
T1 sequence (Q16602 23-461 limits assumed, chain 1 of 2): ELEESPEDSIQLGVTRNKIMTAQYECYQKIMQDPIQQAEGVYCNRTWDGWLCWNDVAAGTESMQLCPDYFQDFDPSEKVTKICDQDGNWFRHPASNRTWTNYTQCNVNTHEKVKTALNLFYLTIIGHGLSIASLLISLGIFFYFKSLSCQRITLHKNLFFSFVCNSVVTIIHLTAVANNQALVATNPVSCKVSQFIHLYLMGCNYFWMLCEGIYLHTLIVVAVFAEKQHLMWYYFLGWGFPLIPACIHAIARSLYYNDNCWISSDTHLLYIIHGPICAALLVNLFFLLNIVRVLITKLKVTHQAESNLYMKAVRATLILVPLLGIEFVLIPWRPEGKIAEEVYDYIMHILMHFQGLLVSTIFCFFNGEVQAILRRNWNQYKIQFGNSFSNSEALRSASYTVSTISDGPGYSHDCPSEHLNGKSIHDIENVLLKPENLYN
T1 sequence (O60894 27-148 limits assumed, chain 2 of 2): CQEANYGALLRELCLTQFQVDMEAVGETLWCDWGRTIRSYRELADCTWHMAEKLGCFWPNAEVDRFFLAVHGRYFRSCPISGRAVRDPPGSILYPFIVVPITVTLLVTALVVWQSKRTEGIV
Test: yeast-displayed Fab, FACS, detergent-solubilized lysate of human CGRP receptor-expressing cells vs blank cells
REPORTED METRIC: Mutant vs. 4E4.2 Parent Specific Binding Ratio (fold)
Use fold as the unit, but write only the number.

Per the record, anti-CGRP receptor variant 02, yeast-displayed Fab (Fab, V domains shown, also called Variant Ab ID 02) VH: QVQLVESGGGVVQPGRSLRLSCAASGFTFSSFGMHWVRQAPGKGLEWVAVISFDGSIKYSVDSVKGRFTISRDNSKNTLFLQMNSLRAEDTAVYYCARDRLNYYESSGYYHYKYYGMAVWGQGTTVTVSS VL: QSVLTQPPSVSAAPGQKVTISCSGSRSNIGIKAVSWYQQLPGTAPKLLIYDNNKRPSGIPDRFSGSKSGTSATLGITGLQTGDEADYYCGTWDSRLSAVVFGGGTKLTVLG has Mutant vs. 4E4.2 Parent Specific Binding Ratio of 1.8

Per the record, anti-CGRP receptor variant 06, yeast-displayed Fab (Fab, V domains shown, also called Variant Ab ID 06) VH: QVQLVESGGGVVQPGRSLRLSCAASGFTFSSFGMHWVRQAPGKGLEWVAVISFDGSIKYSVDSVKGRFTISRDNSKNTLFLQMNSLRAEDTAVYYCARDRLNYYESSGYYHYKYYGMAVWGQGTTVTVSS VL: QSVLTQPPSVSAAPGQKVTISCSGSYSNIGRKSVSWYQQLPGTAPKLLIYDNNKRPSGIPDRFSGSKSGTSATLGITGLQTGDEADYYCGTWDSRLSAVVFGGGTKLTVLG has Mutant vs. 4E4.2 Parent Specific Binding Ratio of 2.2
